Let's look at some molecules and their measured selectivity ratio at 168 h.
- experiment-description: Selectivity index, ratio of CC50 for cytotoxicity against human A549 cells to IC50 for antiviral activity against Human adenovirus 5 infected in 293beta5 cells assessed as inhibition of plaque formation after 7 days
- Format: toxicity, cell-based
- test-settings: read-out: Ratio CC50/IC50
Please give the numeric answer without any surrounding text.

>>> print(df.to_string())
                                smiles_repr               quantity_name  reported_measurement
0  CC[C@@H](C)[C@H](NC(=O)c1cc(Cl)ccc1O)C(=O)Nc1ccc([N+](=O)[O-])cc1Cl  selectivity ratio at 168 h                   128
1  O=C(Nc1cc(F)cc(C(F)(F)F)c1)c1cc(Cl)ccc1O  selectivity ratio at 168 h                   667
2  O=C(Nc1cc(C(F)(F)F)cc(C(F)(F)F)c1)c1cc(Cl)ccc1O  selectivity ratio at 168 h                  68.3
3  CC(C)[C@H](NC(=O)c1cc(Cl)ccc1O)C(=O)Nc1ccc([N+](=O)[O-])cc1Cl  selectivity ratio at 168 h                   444

Could you share which selectivity ratio at 168 h value was measured for "CC(C)[C@H](NC(=O)c1cc(Cl)ccc1O)C(=O)Nc1cc(F)cc(C(F)(F)F)c1" ?
65.2
